Tested on: Enterococcus faecalis
protocol-summary: Antibacterial activity against Enterococcus faecalis ATCC 29212 by CLSI method
Assay type: functional
attribute-measured: MIC

Answered examples (5):
COC(=O)N[C@H]1[C@@H](C)O[C@@H](O[C@H]2C/C=C(\C)[C@@H]3C=C[C@@H]4[C@@H](O[C@H]5C[C@@H](O[C@H]6CC[C@@H](O[C@@H]7C[C@@H](O)[C@@H](O)[C@H](C)O7)[C@H](C)O6)[C@@H](OC(C)=O)[C@H](C)O5)[C@@H](C)C[C@H](C)[C@H]4[C@]3(C)C(=O)C3=C(O)[C@@]4(CC(C=O)=C[C@H](O)[C@H]4/C=C/2C)OC3=O)C[C@]1(C)[N+](=O)[O-] ... 64 µg/mL
COC(=O)N[C@H]1[C@@H](C)O[C@@H](O[C@H]2C/C=C(\C)[C@@H]3C=C[C@@H]4[C@@H](O[C@H]5C[C@@H](O[C@H]6CC[C@@H](O[C@@H]7C[C@@H](O)[C@@H](O)[C@H](C)O7)[C@H](C)O6)[C@@H](OC(C)=O)[C@H](C)O5)[C@@H](C)C[C@H](C)[C@H]4[C@]3(C)C(=O)C3=C(O)[C@@]4(CC(/C=C/C(C)=O)=C[C@H](O)[C@H]4/C=C/2C)OC3=O)C[C@]1(C)[N+](=O)[O-] ... 64 µg/mL
COC(=O)N[C@H]1[C@@H](C)O[C@@H](O[C@H]2C/C=C(\C)[C@@H]3C=C[C@@H]4[C@@H](O[C@H]5C[C@@H](O[C@H]6CC[C@@H](O[C@@H]7C[C@@H](O)[C@@H](O)[C@H](C)O7)[C@H](C)O6)[C@@H](OC(C)=O)[C@H](C)O5)[C@@H](C)C[C@H](C)[C@H]4[C@]3(C)C(=O)C3=C(O)[C@@]4(CC(/C=C/C(C)=O)=C[C@H](O)[C@H]4/C=C/2C)OC3=O)C[C@]1(C)N ... > 128 µg/mL
CC1(C)S[C@@H]2[C@H](NC(=O)[C@H](N)c3ccccc3)C(=O)N2[C@H]1C(=O)O ... 2 µg/mL
COC(=O)N[C@H]1[C@@H](C)O[C@@H](O[C@H]2C/C=C(\C)[C@@H]3C=C[C@@H]4[C@@H](O[C@H]5C[C@@H](O[C@H]6CC[C@@H](O[C@@H]7C[C@@H](O)[C@@H](O[C@H]8CC[C@@H](O)[C@H](C)O8)[C@H](C)O7)[C@H](C)O6)[C@@H](OC(C)=O)[C@H](C)O5)[C@@H](C)C[C@H](C)[C@H]4[C@]3(C)C(=O)C3=C(O)[C@@]4(CC(C=O)=C[C@H](O)[C@H]4/C=C/2C)OC3=O)C[C@]1(C)N ... > 128 µg/mL

Report MIC for every entry below.
1. COC(=O)N[C@H]1[C@@H](C)O[C@@H](O[C@H]2C/C=C(\C)[C@@H]3C=C[C@@H]4[C@@H](O[C@H]5C[C@@H](O[C@H]6C[C@@H](O)[C@@H](O[C@@H]7C[C@@H](O)[C@@H](O)[C@H](C)O7)[C@H](C)O6)[C@@H](OC(C)=O)[C@H](C)O5)[C@@H](C)C[C@H](C)[C@H]4[C@]3(C)C(=O)C3=C(O)[C@@]4(CC(/C=C/C(C)=O)=C[C@H](O)[C@H]4/C=C/2C)OC3=O)C[C@]1(C)N
2. COC(=O)N[C@H]1[C@@H](C)O[C@@H](O[C@H]2C/C=C(\C)[C@@H]3C=C[C@@H]4[C@@H](O[C@H]5C[C@@H](O[C@H]6CC[C@@H](O[C@@H]7C[C@@H](O)[C@@H](O[C@H]8CC[C@@H](O)[C@H](C)O8)[C@H](C)O7)[C@H](C)O6)[C@@H](OC(C)=O)[C@H](C)O5)[C@@H](C)C[C@H](C)[C@H]4[C@]3(C)C(=O)C3=C(O)[C@@]4(CC(/C=C/C(C)=O)=C[C@H](O)[C@H]4/C=C/2C)OC3=O)C[C@]1(C)[N+](=O)[O-]

Completion:
> 128 µg/mL
64 µg/mL

Short answer on Enterococcus faecalis for `COC(=O)N[C@H]1[C@@H](C)O[C@@H](O[C@H]2C/C=C(\C)[C@@H]3C=C[C@@H]4[C@@H](O[C@H]5C[C@@H](O[C@H]6CC[C@@H](O[C@@H]7C[C@@H](O)[C@@H](O[C@H]8CC[C@@H](O)[C@H](C)O8)[C@H](C)O7)[C@H](C)O6)[C@@H](OC(C)=O)[C@H](C)O5)[C@@H](C)C[C@H](C)[C@H]4[C@]3(C)C(=O)C3=C(O)[C@@]4(CC(/C=C/C(C)=O)=C[C@H](O)[C@H]4/C=C/2C)OC3=O)C[C@]1(C)N` , MIC: > 128 µg/mL
